- SYSTEM: T1, 4H3066-AA
- T1 chain: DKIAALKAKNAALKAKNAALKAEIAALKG
- METHOD: two-hybrid library CCmax;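 also: natural log of median RNA to DNA barcode read ratio; higher means stronger binding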
- EXPERIMENTAL_SETUP: mean of both orientations
Readings of interaction score for the listed binders
// return just the number, without any unit appended

Here are 3 binders together with their reported answers.
[[record]]
binder = "DEIAALEAENAALEAKNAALKAKIAALEG [4H189-AA]"
readout_number = 1.07

[[record]]
binder = "DKIAALEAENAALKAEIAALEAKNAALKG [4H2248-AA]"
readout_number = -1.25

[[record]]
binder = "DENAALEAKIAALKAEIAALEAENAALKG [4H1348-AA]"
readout_number = -2.16


The value of interaction score measured for the binder DEIAALKAKNAALKAKIAALEAKNAALKG [4H1000-AA] turned out to be -1.96
